# Assay Name: Inhibition of Trypanosoma cruzi Ribose 5-phosphate isomerase type B expressed in Escherichia coli BL21 codon plus (DE3) using ribose 5-phosphate as substrate
Measured Quantity: pKi
Entry type: numeric. Quantity: pKi, the -log10 of concentration in molar units.

Problem: Param item = `O=C[C@H](O)[C@H](O)[C@H](O)[C@H](O)COP(=O)(O)O` ; retrieve measured pKi.
Solution: 1.82

----------
# Tested on: Trypanosoma cruzi
# Assay Name: Inhibition of Trypanosoma cruzi Ribose 5-phosphate isomerase type B assessed as residual activity at 1 mM using ribose 5-phosphate as substrate relative to control
Quick reference for Activity among some compounds
Answer format: value, then unit.

1. O=C(CCl)NCCOP(=O)(O)O; 98.5%
2. O=C(Cc1ccccc1)NCCOP(=O)(O)O; 95.3%
3. O=C(CBr)NCCOP(=O)(O)O; 41.3%

Query compound follows.
Problem: Consider the compound shown here: `O=C(CI)NCCOP(=O)(O)O` What is its recorded Activity?
Solution: 1.2%

The values you see were collected from ChEMBL document CHEMBL4680297.
